Cited source: patent US8309558B2

Give measured EC50 for each item. Keep answers brief.
- Test system: HCV replicon cells
- protocol: HCV replicon FRET / luciferase assay (96-well plates)
- Type: cell-based
- experimental parameters: Hepatitis C virus, Table 1a; HCV replicon; read-out: EC50
- Source text: FRET Assay Preparation. To perform the HCV FRET screening assay, 96-well cell culture plates were used. The FRET peptide (Anaspec, Inc.) (Taliani et al., Anal. Biochem. 1996, 240, 60-67) contains a fluorescence donor, EDANS, near one end of the peptide and an acceptor, DABCYL, near the other end. […] Assays. […] The plate was then placed into the Cytoflour 4000 instrument which had been set to 340 excite/490 emission, automatic mode for 20 cycles and the plate read in a kinetic mode. […]

Past entries and their recorded results:
>  <compound>
CNC(=O)c1c(-c2ccc(F)cc2)oc2ccc(-c3cccc(C(=O)NC(C)(C)c4cccc5ccccc45)c3)cc12

>  <EC50>
250 to 1000 nM

$$$$
>  <compound>
CNC(=O)c1c(-c2ccc(F)cc2)oc2ccc(-c3cccc(C(=O)NC(C)(C)C)c3)cc12

>  <EC50>
< 250 nM

$$$$
>  <compound>
CNC(=O)c1c(-c2ccc(F)cc2)oc2ccc(-c3cccc(S(=O)(=O)NC(C)C)c3)cc12

>  <EC50>
> 10000 nM

$$$$
>  <compound>
CCOC(=O)[C@@H]1CCCN1C(=O)c1cccc(-c2ccc3oc(-c4ccc(F)cc4)c(C(=O)NC)c3c2)c1

>  <EC50>
> 10000 nM

$$$$
>  <compound>
CNC(=O)c1c(-c2ccc(F)cc2)oc2ccc(-c3cccc(C(=O)N4CC[C@H](NC(C)=O)C4)c3)cc12 [drawing 277]

>  <EC50>
> 10000 nM

$$$$

Hey, quick one: what's EC50 for each of these?
1. CNC(=O)c1c(-c2ccc(F)cc2)oc2ccc(-c3cccc(C(=O)NC(C)(C)C(=O)N(C)C)c3)cc12
2. CNC(=O)c1c(-c2ccc(F)cc2)oc2ccc(-c3cccc(C(=O)NC(C)(C)CO)c3)cc12
3. CNC(=O)c1c(-c2ccc(F)cc2)oc2ccc(-c3cc(C(=O)O)cc([N+](=O)[O-])c3)cc12
4. C=CCOC(=O)[C@H](C)NC(=O)c1cccc(-c2ccc3oc(-c4ccc(F)cc4)c(C(=O)NC)c3c2)c1
5. CNC(=O)c1c(-c2ccc(F)cc2)oc2ccc(-c3ccc(/C=C/C(=O)O)cc3)cc12
6. CNC(=O)c1c(-c2ccc(F)cc2)oc2cc([N+](=O)[O-])c(-c3cccc(C(=O)O)c3)cc12

< 250 nM
< 250 nM
> 10000 nM
> 10000 nM
1000 to 10000 nM
> 10000 nM

Your task in this section: give EC50 for each listed record.
1. CNC(=O)c1c(-c2ccc(F)cc2)oc2ccc(-c3cccc(S(=O)(=O)NCCO)c3)cc12
2. CNC(=O)c1c(-c2ccc(F)cc2)oc2ccc(-c3cccc(C(=O)NC4(c5ccccc5)CC4)c3)cc12 [drawing 67]
3. CNC(=O)c1c(-c2ccc(F)cc2)oc2ccc(-c3cccc(C(=O)NC4(c5ccc(F)cc5)CC4)c3)cc12
4. CNC(=O)c1c(-c2ccc(F)cc2)oc2ccc(-c3cccc(C(=O)NC(C)(C)C(=O)OC)c3)cc12
5. CNC(=O)c1c(-c2ccc(F)cc2)oc2ccc(-c3sccc3C(=O)O)cc12
6. C=CCNC(=O)C(C)(C)NC(=O)c1cccc(-c2ccc3oc(-c4ccc(F)cc4)c(C(=O)NC)c3c2)c1

1. > 10000 nM
2. < 250 nM
3. < 250 nM
4. < 250 nM
5. > 10000 nM
6. 250 to 1000 nM
